Examples of binders with documented IC50 follow.
# target of assay: human CTLA-4 (Y166G and Y183G) expressed on CHO-K1.hCTLA-4 cells (human, UniProt P16410 36-223)
# Sequence (P16410 36-223 Y201G/Y218G limits assumed): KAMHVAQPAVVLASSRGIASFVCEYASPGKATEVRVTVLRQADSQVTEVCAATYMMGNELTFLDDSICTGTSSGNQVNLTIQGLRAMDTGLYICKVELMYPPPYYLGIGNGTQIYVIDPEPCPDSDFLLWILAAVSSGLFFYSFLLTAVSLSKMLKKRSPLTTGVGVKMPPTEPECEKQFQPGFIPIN
# experiment description: CELISA, blockade of biotinylated hCD80/Fc binding to CHO-K1.hCTLA-4 cells
Reply numerically in nM, unit not repeated.

Some solved cases for reference:
binder: hCTLA4.27H6L3 (antibody, human IgG4 S228P, kappa, V domains shown, Humanized, human IgG4 (S228P) kappa; H6 read as hCTLA4.27VH6, L3 as hCTLA4.27VL3) VH: EVQLLESGPELVRPGSSVKISCKASGYSFTTYWMNWVKQRPGKGLEWIGMIHPSDSETSLNQAFKDKVKLTAATSASIAYLEFSSLRNEDSAVYYCARMGRRNPYYFDYWGQGTLVTVSS VL: DIQMTQSPSSLSASVGDTVTITCRPSENLYTNLAWYQQKPGKAPKLLLYGATNLADGVPSRFSGSGSGTDYTLTISSLQSEDFATYYCQHLWGTPFTFGQGTKLEIKR
value kind: IC50
quantity unit: nM
recorded result: 1.82
//
binder: hCTLA4.27H3L5 (antibody, human IgG4 S228P, kappa, V domains shown, Humanized, human IgG4 (S228P) kappa; H3 read as hCTLA4.27VH3, L5 as hCTLA4.27VL5) VH: EVQLVQSGAVVAKPGSSVKVSCKASGYSFTTYWMNWVRQAPGQGLEWMGMIHPSDSETSLNQAFKDRVTITADKSTSTAYMELSSLTSEDTAVYYCARMGRRNPYYFDYWGQGTTVTVSS VL: DIQMTQAPSSLSASVGDRVTITCRPSENLYTNLAWYQQKPGKAPKLLLYGATNLADGVPSRFSGSGSGTDYTLTISSLQAEDFATYYCQHLWGTPFTFGGGTKLEIKR
value kind: IC50
quantity unit: nM
recorded result: 3.67

Next up:
In: For the binder shown here, hCTLA4.27H2L1 (antibody, human IgG4 S228P, kappa, V domains shown, Humanized, human IgG4 (S228P) kappa; H2 read as hCTLA4.27VH2, L1 as hCTLA4.27VL1) VH: EVQLVQSGAVLVKPGASVKVSCKASGYSFTTYWMNWVRQRPGKGLEWIGMIHPSDSETSLNQAFKDKVTITADESTSTAYMQLSSLRSEDTAVYYCARMGRRNPYYFDYWGQGTTVTVSS VL: DIQMTQSPSSLSASVGDRVTITCRPSENLYTNLAWYQQKPGKAPKLLLYGATNLADGVPSRFSGSGSGTDYTLTISSLQPEDFATYYCQHLWGTPFTFGQGTKLEIKR , give the reported IC50.
Out: 2.98
